Kindly supply the reported interaction score values for the records listed here.
# target_or_system: T1, 4H656-AA
# T1 chain: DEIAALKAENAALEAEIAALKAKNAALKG
# protocol_notes: two-hybrid library CCmax;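 note: natural log of median RNA to DNA barcode read ratio; higher means stronger binding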
# assay_setup: mean of both orientations
Answers are plain numbers.

Give reported interaction score value for DKIAALKAENAALEAKNAALEAKIAALKG [4H2742-AA] -2

Write down interaction score measured for item DKNAALEAEIAALEAENAALKAKIAALKG [4H3102-AA] 0.534

Read the entry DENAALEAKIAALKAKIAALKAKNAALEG [4H1391-AA] and write its reported interaction score. -1.09

Now consider a different binder.
Retrieve interaction score measured for DKNAALEAEIAALEAKNAALEAEIAALEG [4H3121-AA] and print it. -1.6
